Test system: P. falciparum stage V gametocytes
Design: BacTiter-Glo ATP luminescence viability of purified stage V gametocytes in 384-well plates, per cent inhibition versus DMSO
Settings: 48 h, 5 µM; inhibitor
In all, about 13,000 compounds went through this assay and about 3,200 (25%) showed an effect of 50% or more. The list shows a part of the results.
Recorded % Inhibition, one value per entry.
API: value field is a number in %; no unit string.

Some solved cases for reference:
CCC1(CC)CN(c2ccccc2)c2ccc(O)cc2S(=O)(=O)C1CC(C)C (stereo not shown) [TCMDC-137217]: -89.07
CN(C)CCOc1ccnc2ccc(NC(=O)Cc3ccc(-c4ccncc4)c4ccccc34)cc12 [TCMDC-139162]: 6.193

Report % Inhibition for COc1ccc2c(c1)OC(C)(C)CC2=NOS(=O)(=O)c1ccc(C)cc1 [TCMDC-131772] please. -0.3703

Quick one: % Inhibition of CC(C)N(Cc1ccccc1)C(=O)CN1C(=O)COc2ccc(S(=O)(=O)N3CCCCCC3)cc21 [TCMDC-124755] ? -21.1
